Measured values drawn from patent EP2351737A1 for this set.

- SYSTEM_UNDER_TEST: Human Serotonin Transporter (hSERT) (Homo sapiens)
- Construct: expressed in transfected cells; membranes prepared from them
- MEASUREMENT_DESCRIPTION: Human Serotonin Transporter (hSERT) Scintillation Proximity Assay (SPA), competition with [3H]-Citalopram
- Type: binding
- CONDITION_SET: membranes of HEK-293 cells expressing recombinant hSERT, Ki by Cheng-Prusoff, read-out: pKi SERT (converted)
As shown below, each of these compounds has a reported Ki value.
Give the number; nM is assumed, so skip it.

Worked cases, Ki given:
1) CNCCC(c1ccccc1)c1ccc2[nH]cc(S(C)(=O)=O)c2c1 (stereo not shown) [Compound 16] ... 151
2) CNCCC(c1ccccc1)c1ccc2[nH]ccc2c1 (stereo not shown) [Compound 42] ... 32.4
3) CNCCC(c1ccccc1)c1cc2cc[nH]c2cc1F (stereo not shown) [Compound 102] ... 77.6
4) CN(C)CCC(c1ccccc1)c1ccc2[nH]ccc2c1 (stereo not shown) [Compound 113] ... 178
5) CNCCC(c1ccccc1)c1ccc2[nH]cc(C(N)=O)c2c1 (stereo not shown) [Compound 91] ... 33.9
6) NCCC(c1ccc2[nH]ccc2c1)c1ccc2[nH]ccc2c1 [Compound 119, 3,3-Bis-(1H-indol-5-yl)-propylamine] ... 72.4

Pending compound:
Inquiry: Record request: Ki value, item CNCCC(c1ccc2[nH]ccc2c1)c1ccc2sccc2c1 (stereo not shown) [Compound 116]
Reply text: 1.74

###

- SYSTEM_UNDER_TEST: Human Norepinephrine Transporter (hNET) (Homo sapiens, UniProt P23975)
- Sequence (P23975 whole entry): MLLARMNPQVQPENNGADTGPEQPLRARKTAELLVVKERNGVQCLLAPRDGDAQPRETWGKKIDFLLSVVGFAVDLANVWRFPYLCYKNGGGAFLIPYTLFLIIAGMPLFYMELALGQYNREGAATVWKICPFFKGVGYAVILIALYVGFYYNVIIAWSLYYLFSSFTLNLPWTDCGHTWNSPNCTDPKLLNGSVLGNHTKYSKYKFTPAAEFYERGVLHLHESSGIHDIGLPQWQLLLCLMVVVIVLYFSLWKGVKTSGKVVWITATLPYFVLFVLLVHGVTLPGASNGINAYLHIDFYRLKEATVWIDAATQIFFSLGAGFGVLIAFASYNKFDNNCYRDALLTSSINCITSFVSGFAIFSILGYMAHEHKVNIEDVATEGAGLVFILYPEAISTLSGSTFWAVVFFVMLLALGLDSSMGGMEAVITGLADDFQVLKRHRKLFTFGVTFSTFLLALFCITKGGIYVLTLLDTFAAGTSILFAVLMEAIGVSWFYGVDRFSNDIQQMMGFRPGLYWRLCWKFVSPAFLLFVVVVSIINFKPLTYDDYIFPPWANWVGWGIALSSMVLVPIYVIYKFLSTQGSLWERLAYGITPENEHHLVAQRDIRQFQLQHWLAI
- MEASUREMENT_DESCRIPTION: Human Norepinephrine Transporter (hNET) Scintillation Proximity Assay (SPA), competition with [3H]-Nisoxetine
- CONDITION_SET: membranes of HEK-293 cells expressing recombinant hNET, Ki by Cheng-Prusoff
EXPERIMENTAL_READOUT: pKi NET
A bare number is all that is needed in reply.

Worked cases, pKi NET given:
1) CNCCC(c1ccccc1)c1ccc2c(C#N)c[nH]c2c1 (stereo not shown) ... 6.89
2) CNCCC(c1ccccc1)c1cc(OC)c2cc[nH]c2c1 (stereo not shown) ... 7.63
3) CNCCC(c1ccccc1)c1cc(F)c2[nH]ccc2c1 (stereo not shown) ... 8.2

Pending compound:
Inquiry: Record request: pKi NET value, item CNCCC(c1ccccc1)c1ccc2[nH]ccc2c1 (stereo not shown)
Reply text: 8.0

###

- SYSTEM_UNDER_TEST: Human Serotonin Transporter (hSERT) (Homo sapiens, UniProt P31645)
- Construct: expressed in transfected cells; membranes prepared from them
- Sequence (P31645 whole entry): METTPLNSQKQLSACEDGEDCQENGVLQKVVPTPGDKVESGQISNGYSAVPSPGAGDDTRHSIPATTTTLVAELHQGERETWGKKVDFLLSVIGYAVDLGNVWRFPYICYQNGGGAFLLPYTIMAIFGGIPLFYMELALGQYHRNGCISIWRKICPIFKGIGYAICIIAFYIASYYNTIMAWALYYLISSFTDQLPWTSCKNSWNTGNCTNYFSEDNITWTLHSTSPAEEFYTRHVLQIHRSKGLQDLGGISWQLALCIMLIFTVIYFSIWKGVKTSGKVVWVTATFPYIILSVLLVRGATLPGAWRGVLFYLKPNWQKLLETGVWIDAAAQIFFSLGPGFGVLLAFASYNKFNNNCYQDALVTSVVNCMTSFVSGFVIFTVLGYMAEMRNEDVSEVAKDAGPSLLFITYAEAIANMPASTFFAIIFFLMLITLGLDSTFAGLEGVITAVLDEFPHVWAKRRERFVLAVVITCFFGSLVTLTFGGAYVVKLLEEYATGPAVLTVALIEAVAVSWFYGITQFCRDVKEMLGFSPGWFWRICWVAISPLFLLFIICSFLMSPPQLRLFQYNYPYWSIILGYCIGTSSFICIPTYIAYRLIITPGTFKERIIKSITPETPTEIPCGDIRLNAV
- MEASUREMENT_DESCRIPTION: Human Serotonin Transporter (hSERT) Scintillation Proximity Assay (SPA), competition with [3H]-Citalopram
- Type: binding
- CONDITION_SET: membranes of HEK-293 cells expressing recombinant hSERT, Ki by Cheng-Prusoff, read-out: pKi SERT (converted)
Structures can show the parent of a compound that is named as a salt.
EXPERIMENTAL_READOUT: Ki (nM)
Give the number; nM is assumed, so skip it.

1) CNCCC(c1cccc(F)c1)c1cc(Cl)c2[nH]ccc2c1 (stereo not shown) [Compound 108] ... 12.9
2) CNCCC(c1ccccc1)c1ccc2[nH]nc(OC(C)C)c2c1 (stereo not shown) [Compound 80] ... 33.1
3) CNCC[C@H](c1ccccc1)c1cc(OC)c2[nH]ncc2c1 [Compound 83] ... 11.5
4) CNCCC(c1ccccc1)c1ccc2[nH]ccc2c1F (stereo not shown) [Compound 97] ... 9.33

Inquiry: Record request: Ki value, item CNCCC(c1ccccc1)c1cc(F)c2c(c1)c(C#N)cn2C (stereo not shown) [Compound 127]
Reply text: 8.32

Inquiry: Quick one: CNCCC(c1ccc2[nH]ccc2c1)c1nc2ccccc2s1 (stereo not shown) [Compound 140]
Reply text: 11.2

Inquiry: Quick one: CNCCC(c1ccccc1)c1cc(C)c2[nH]ncc2c1 (stereo not shown) [Compound 76]
Reply text: 17.4

Inquiry: Quick one: CNCCC(c1ccc2[nH]ccc2c1)c1ccc2cc[nH]c2c1 (stereo not shown) [Compound 117]
Reply text: 8.91

Inquiry: Quick one: CNCCC(c1ccccc1)c1ccc2ccn(C)c2c1 (stereo not shown) [Compound 9]
Reply text: 9.55

Inquiry: Quick one: CNCCC(c1ccccc1)c1ccc2[nH]ncc2c1 (stereo not shown) [Compound 51, hydrochloride]
Reply text: 15.8
